# test system: T1, human PRLR (Biacore antigen) (human, UniProt P16471 25-234, limits assumed)
# T1 construct: The construct injected over captured antibody is not described (a soluble form is likely); also called huPRLR
# T1 sequence: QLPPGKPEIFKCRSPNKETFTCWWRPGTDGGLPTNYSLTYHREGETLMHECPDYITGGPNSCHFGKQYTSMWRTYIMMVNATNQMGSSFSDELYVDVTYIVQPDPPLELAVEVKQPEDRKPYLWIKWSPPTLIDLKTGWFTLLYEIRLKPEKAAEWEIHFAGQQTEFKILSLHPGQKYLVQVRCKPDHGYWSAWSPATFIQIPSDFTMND
# assay explanation: SPR simultaneous binding; PRLR held by surface mAb chAb7
quantity kind: solution mAb binding, % of PRLR binding
Please append the unit to your numeric answer.

Exercise: # query: solution mAb binding, % of PRLR binding of entry Ab19 (antibody, human IgG1, kappa, V domains shown, humanized from Ab6; G1; also called Ab1 HC.1a and Ab1 LC.1a) VH: EVQLVQSGAEVKKPGSSVKVSCKASGYTFTTYWMHWVRQAPGQGLEWIGEIDPSDSYSNYNQKFKDRATLTVDKSTSTAYMELSSLRSEDTAVYYCARNGGLGPAWFSYWGQGTLVTVSS VL: DIQMTQSPSSVSASVGDRVTITCKASQYVGTAVAWYQQKPGKSPKLLIYSASNRYTGVPSRFSDSGSGTDFTLTISSLQPEDFATYFCQQYSSYPWTFGGGTKVEIKR
Solution: 0%

Exercise: Can you look up the measured solution mAb binding, % of PRLR binding of Ab48 (antibody, human IgG1, kappa, V domains shown, humanized from Ab8; G1; also called Ab3 HC.1a and Ab3 LC.1a) VH: EVQLVQSGAEVKKPGASVKVSCKASGYTFTDYNIHWVRQAPGQGLEWIGYIYPNNDGTGYNQKFKSRATLTVDNSTSTAYMELRSLRSDDTAVYYCARGDGNYVGDMDYWGQGTTVTVSS VL: DIQMTQSPSSLSASVGDRVTITCRASENIYSYLAWYQQKPGKPPKLLVYNAKTLAEGVPSRFSGSGSGTDFTLTISSLQPEDFATYYCQHHYATPFTFGQGTKLEIKR for me?
Solution: 0%

Exercise: I would be grateful if you could share the reported solution mAb binding, % of PRLR binding for chAb5 (antibody, human IgG1, kappa, V domains shown, chimeric, murine variable and human G1/kappa constant regions) VH: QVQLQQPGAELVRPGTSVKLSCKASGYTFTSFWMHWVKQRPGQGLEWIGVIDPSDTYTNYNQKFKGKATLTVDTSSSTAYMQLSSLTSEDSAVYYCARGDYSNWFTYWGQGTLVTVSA VL: DVVMTQTPLSLPVSLGDQASISCRSSQRLVHSNGNTYLHWYLQKPGQSPKLLIYKVSNRFSGVPDRFSGSGSGTDFTLKISRVEAEDLGVYFCSQSTHVPWTFGGGTKLEIKT .
Solution: 0%

Exercise: Item Ab49 (antibody, human IgG1, kappa, V domains shown, humanized from Ab8; G1; also called Ab3 HC.1a and Ab3 LC.1b) VH: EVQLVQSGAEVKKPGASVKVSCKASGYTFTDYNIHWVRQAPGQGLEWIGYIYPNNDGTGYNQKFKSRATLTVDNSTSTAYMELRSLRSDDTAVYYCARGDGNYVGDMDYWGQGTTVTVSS VL: DIQMTQSPSSLSASVGDRVTITCRASENIYSYLAWYQQKPGKAPKLLVYNAKTLAEGVPSRFSGSGSGTDFTLTISSLQPEDFATYYCQHHYATPFTFGQGTKLEIKR has what recorded solution mAb binding, % of PRLR binding?
Solution: 0%

Exercise: Item under review: LFA102 (antibody, human IgG1, kappa, V domains shown, humanized IgG1 kappa comparator (WO 2008022295)) VH: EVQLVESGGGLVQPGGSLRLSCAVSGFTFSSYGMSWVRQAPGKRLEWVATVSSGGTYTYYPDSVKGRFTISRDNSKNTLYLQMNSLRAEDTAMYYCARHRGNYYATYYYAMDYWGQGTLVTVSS VL: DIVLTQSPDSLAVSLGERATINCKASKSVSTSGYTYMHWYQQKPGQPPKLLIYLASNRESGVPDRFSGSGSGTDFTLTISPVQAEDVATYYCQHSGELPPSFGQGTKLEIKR . Reported solution mAb binding, % of PRLR binding?
Solution: 39%
